- Tested on: NCI-H460
- protocol-details: relative viability (nuclei count vs DMSO), 5 days (fraction); higher = more cells survive
- measurement-setup: first compound 0.4 µM
quantity: relative viability

// below: answered compounds
- COc1cc(N2CCC(C(N)=O)CC2)ccc1Nc1nc(N)c(Cl)c(Nc2ccccc2S(=O)(=O)C(C)C)n1 [HG-5-88-01] + CC(=O)Nc1cccc(-n2c(=O)n(C3CC3)c(=O)c3c(Nc4ccc(I)cc4F)n(C)c(=O)c(C)c32)c1 [Trametinib] (partner 0.02 µM): 0.13
- C[C@@H]1CN(CC(=O)Nc2ccc3c(c2)Cc2cccc(-c4cc(=O)cc(N5CCOCC5)o4)c2S3)C[C@H](C)O1 + C[C@@H](Oc1cc(-c2cnn(C3CCNCC3)c2)cnc1N)c1c(Cl)ccc(F)c1Cl [Crizotinib] (partner 1 µM): 0.971
- COc1cc(N2CCC(C(N)=O)CC2)ccc1Nc1nc(N)c(Cl)c(Nc2ccccc2S(=O)(=O)C(C)C)n1 [HG-5-88-01] + CS(=O)(=O)N1CCN(Cc2cc3nc(-c4cccc5[nH]ncc45)nc(N4CCOCC4)c3s2)CC1 [Pictilisib] (partner 1 µM): 0.395

Below: the item to evaluate.
[in] Please provide the recorded relative viability for C[C@@H]1CN(CC(=O)Nc2ccc3c(c2)Cc2cccc(-c4cc(=O)cc(N5CCOCC5)o4)c2S3)C[C@H](C)O1 + CS(=O)(=O)CCNCc1ccc(-c2ccc3ncnc(Nc4ccc(OCc5cccc(F)c5)c(Cl)c4)c3c2)o1 [Lapatinib] (partner 2 µM) , tested on NCI-H460.
[out] 1.04

* * *

- Test system: SK-MES-1
- protocol-details: relative viability (nuclei count vs DMSO), 5 days (fraction); higher = more cells survive
- measurement-setup: first compound 0.04 µM
Listed here are compounds together with their documented relative viability.
Reply briefly: the number, and no unit.

// below: answered compounds
- COc1cc(N2CCC(C(N)=O)CC2)ccc1Nc1nc(N)c(Cl)c(Nc2ccccc2S(=O)(=O)C(C)C)n1 [HG-5-88-01] + O=C(CCCCCCC(=O)Nc1ccccc1)NO [Vorinostat] (partner 1 µM): 1.14
- COc1cc(N2CCC(C(N)=O)CC2)ccc1Nc1nc(N)c(Cl)c(Nc2ccccc2S(=O)(=O)C(C)C)n1 [HG-5-88-01] + CC1(C)CCC(c2ccc(Cl)cc2)=C(CN2CCN(c3ccc(C(=O)NS(=O)(=O)c4ccc(N[C@H](CCN5CCOCC5)CSc5ccccc5)c(S(=O)(=O)C(F)(F)F)c4)cc3)CC2)C1 [Navitoclax] (partner 0.5 µM): 1.17
- C[C@@H]1CN(CC(=O)Nc2ccc3c(c2)Cc2cccc(-c4cc(=O)cc(N5CCOCC5)o4)c2S3)C[C@H](C)O1 + CC(=O)Nc1cccc(-n2c(=O)n(C3CC3)c(=O)c3c(Nc4ccc(I)cc4F)n(C)c(=O)c(C)c32)c1 [Trametinib] (partner 0.02 µM): 0.652

[in] What value of relative viability has been recorded for this entry: COc1cc(N2CCC(C(N)=O)CC2)ccc1Nc1nc(N)c(Cl)c(Nc2ccccc2S(=O)(=O)C(C)C)n1 [HG-5-88-01] + C[C@@H](Oc1cc(-c2cnn(C3CCNCC3)c2)cnc1N)c1c(Cl)ccc(F)c1Cl [Crizotinib] (partner 1 µM)
[out] 0.96

* * *

- System: LOU-NH91
- protocol-details: relative viability (nuclei count vs DMSO), 5 days (fraction); higher = more cells survive
- measurement-setup: first compound 1.265 µM
quantity: relative viability

// below: answered molecules
• COc1cc(N2CCC(C(N)=O)CC2)ccc1Nc1nc(N)c(Cl)c(Nc2ccccc2S(=O)(=O)C(C)C)n1 [HG-5-88-01] + C[C@]1(O)C[C@@H](c2nc(-c3ccc4ccc(-c5ccccc5)nc4c3)c3c(N)nccn32)C1 [Linsitinib] (partner 1 µM) = 0.609
• Clc1ccc(Nc2nnc(Cc3ccncc3)c3ccccc23)cc1 [Vatalanib] + CCNC(=O)c1noc(-c2cc(C(C)C)c(O)cc2O)c1-c1ccc(CN2CCOCC2)cc1 [Luminespib] (partner 0.01 µM) = 0.368
• COc1cc(N2CCC(C(N)=O)CC2)ccc1Nc1nc(N)c(Cl)c(Nc2ccccc2S(=O)(=O)C(C)C)n1 [HG-5-88-01] + COc1cc2c(Oc3ccc(NC(=O)C4(C(=O)Nc5ccc(F)cc5)CC4)cc3F)ccnc2cc1OCCCN1CCOCC1 [Foretinib] (partner 0.25 µM) = 0.455

Below: the item to evaluate.
[in] Please provide the recorded relative viability for Clc1ccc(Nc2nnc(Cc3ccncc3)c3ccccc23)cc1 [Vatalanib] + N=C(N)NC(=N)NCCc1ccccc1 [Phenformin] (partner 250 µM) , tested on LOU-NH91.
[out] 0.697
